Reported IC50 values for a set of molecules
# system_under_test: Adenosine receptor A3 (Homo sapiens, UniProt P0DMS8)
# Sequence (P0DMS8 whole entry): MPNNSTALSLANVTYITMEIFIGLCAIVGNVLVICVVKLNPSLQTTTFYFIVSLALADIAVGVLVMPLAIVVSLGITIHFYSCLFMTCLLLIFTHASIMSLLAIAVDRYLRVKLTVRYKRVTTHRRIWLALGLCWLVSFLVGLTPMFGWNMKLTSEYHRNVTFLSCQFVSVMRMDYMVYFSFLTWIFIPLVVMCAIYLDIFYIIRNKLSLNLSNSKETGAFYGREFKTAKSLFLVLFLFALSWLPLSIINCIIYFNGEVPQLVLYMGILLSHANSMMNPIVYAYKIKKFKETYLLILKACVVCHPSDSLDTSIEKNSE
# procedure_text: Inhibitory concentration as antagonistic activity against cAMP generation inhibited by IB-MECA in CHO cell membranes transfected with human A3 receptor
# Type: functional, cell-based
readout_name: IC50 (nM)

[
  {
    "structure": "CCn1cc2c(nc(NC(=O)Nc3ccc(OC)cc3)n3nc(-c4ccco4)nc23)n1",
    "readout_name": "IC50",
    "val": 6.5
  },
  {
    "structure": "CCCn1cc2c(nc(NC(=O)Nc3cccc(Cl)c3)n3nc(-c4ccco4)nc23)n1",
    "readout_name": "IC50",
    "val": 5.3
  },
  {
    "structure": "COc1ccc(NC(=O)Nc2nc3nn(CCc4ccccc4)cc3c3nc(-c4ccco4)nn23)cc1",
    "readout_name": "IC50",
    "val": 12.4
  }
]
